assayed-target: T1, human PD-1 ECD/Fc fusion protein (human)
T1 construct: also called huPD-1/Fc; HuPD-1 ECD/Fc
T1 sequence (chain, as listed by the source limits assumed): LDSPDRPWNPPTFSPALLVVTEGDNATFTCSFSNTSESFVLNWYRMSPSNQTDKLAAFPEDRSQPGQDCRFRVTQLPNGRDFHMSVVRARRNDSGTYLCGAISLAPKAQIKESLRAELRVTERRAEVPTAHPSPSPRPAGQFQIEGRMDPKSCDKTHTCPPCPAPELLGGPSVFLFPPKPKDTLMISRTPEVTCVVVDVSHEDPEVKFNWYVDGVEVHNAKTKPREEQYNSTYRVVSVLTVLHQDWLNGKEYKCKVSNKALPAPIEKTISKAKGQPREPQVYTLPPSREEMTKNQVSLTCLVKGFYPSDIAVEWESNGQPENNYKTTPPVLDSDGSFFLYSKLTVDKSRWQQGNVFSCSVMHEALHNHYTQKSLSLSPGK
measurement-protocol: SPR Biacore, mAb captured, huPD-1/Fc analyte
Method: The binding kinetics of purified antibodies were measured by surface plasmon resonance using a Biacore […] instrument (GE Healthcare) using standard procedures. […] The association and dissociation rate constants, kₒₙ(M⁻¹ s⁻¹) and koff (s⁻¹) respectively, were determined with a continuous flow rate of 30 μl/min. […] The equilibrium dissociation constant KD (M) of the reaction between antibodies and related target proteins was then calculated from the kinetic rate constants using the formula KD=koff/kₒₙ.
assay-endpoint: koff (s⁻¹)
Give a bare numeral; the unit s⁻¹ is implied.

Solved entries (count: 2):
mAb714 (antibody, V domains shown, murine hybridoma anti-PD-1 mAb) VH: EVHLQQSGPELVKPGASVKIFCKASGYTFTDNNVEWVKQSHGKSLEWIGDINPNNGDTLYSQYFKDKATLTVDKSSTTAYMELRSLTSEDTGLYYCARGKSDQFDYWGQGTTLTVSS VL: DIQMTQSPASQSASLGESVTITCLASQTIGTWLAWYQQKPGKSPQLLIYAATSLADGVPSRFSGSGSGTKFSFKISSLQGEDFVSYYCQQLYSSPWTFGGGTKLEIK    0.00021
mAb709 (antibody, V domains shown, murine hybridoma anti-PD-1 mAb) VH: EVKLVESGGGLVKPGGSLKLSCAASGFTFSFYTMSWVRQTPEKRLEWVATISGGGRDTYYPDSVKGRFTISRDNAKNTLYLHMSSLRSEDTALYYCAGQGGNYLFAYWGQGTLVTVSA VL: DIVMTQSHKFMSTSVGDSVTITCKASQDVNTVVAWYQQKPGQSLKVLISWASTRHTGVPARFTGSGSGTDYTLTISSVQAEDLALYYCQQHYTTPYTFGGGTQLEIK    0.000104

Could you now look at the following binder, please?
Asked: Return koff (reported value) for this binder: mAb719 (antibody, V domains shown, murine hybridoma anti-PD-1 mAb) VH: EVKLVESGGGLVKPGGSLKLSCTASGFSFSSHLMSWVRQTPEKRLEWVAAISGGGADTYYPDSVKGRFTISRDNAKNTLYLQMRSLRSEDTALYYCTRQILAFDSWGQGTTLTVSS VL: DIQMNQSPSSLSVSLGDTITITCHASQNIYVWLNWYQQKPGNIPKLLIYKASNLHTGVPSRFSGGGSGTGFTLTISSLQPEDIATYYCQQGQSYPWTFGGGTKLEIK
Given back: 0.000215
